tested-system: osteoclast Ca^2+ receptor
protocol-notes: [Ca2+]i (indo-1) in single rat osteoclasts
Assay type: cell-based
assay-context: Table 6; rat osteoclasts, indo-1; inactive = no increase in cytosolic Ca2+ at 1-5 mM
quantity-name: EC50

Look up EC50: NCCCNCCCCNCCCNCCCNCCCNC(=O)Cc1c[nH]c2ccccc12 [NPS 019]
> 300 µM

---

# Net (+) Charge per entry
protocol-notes: Net positive charge of the molecule
Type: physicochemical
assay-context: Table 1; effective charge at physiological pH

Examples with answers:
NCCNCCNCCN | +4
NC[C@H]1O[C@H](O[C@H]2[C@H](O)[C@@H](O[C@H]3O[C@H](CO)[C@@H](O)[C@H](N)[C@H]3O)[C@H](N)C[C@@H]2N)[C@H](N)[C@@H](O)[C@@H]1O | +5
[H]/N=C(/N)N[C@H]1[C@H](O)[C@@H](O)[C@H](O[C@@H]2O[C@@H](C)[C@](O)(C=O)[C@H]2O[C@@H]2O[C@@H](CO)[C@H](O)[C@@H](O)[C@@H]2NC)[C@@H](N/C(N)=N\[H])[C@@H]1O | +3
C1CNCCNCCNCCNCCNCCN1 | +6
NCCCCCCCCCCCCN | +2

Can you share its Net (+) Charge? I mean this molecule: NC[C@@H]1O[C@H](O[C@H]2[C@@H](O)[C@H](O[C@@H]3[C@@H](O)[C@H](N)C[C@H](N)[C@H]3O[C@H]3O[C@H](CN)[C@@H](O)[C@H](O)[C@H]3N)O[C@@H]2CO)[C@H](N)[C@@H](O)[C@@H]1O
+6

---

protocol-notes: Net positive charge of the molecule
Assay type: physicochemical
assay-context: Table 1; effective charge at physiological pH
Reported Net (+) Charge values are given for each entry in this list.

// worked examples, Net (+) Charge included
NC(=O)C[C@H](NC(=O)Cc1c[nH]c2cccc(O)c12)C(=O)NCCCCCNCCCNCCCNC(=O)[C@@H](N)CCCN=C(N)N | +4
NCCCN1CCCN(CCCN)CCN(CCCN)CCCN(CCCN)CC1 | +8

What does the record list as Net (+) Charge for NCCCCNCCCN ?
+3

Which Net (+) Charge value is on record for NCCNCCNCCNCCN ?
+5

What value of measured Net (+) Charge is listed for NCCCN(CCCN)CCCN(CCCN)CCCCN(CCCN)CCCN(CCCN)CCCN ?
+10

---

tested-system: parathyroid cell Ca^2+ receptor (Bos taurus)
Sequence (P35384 20-1085): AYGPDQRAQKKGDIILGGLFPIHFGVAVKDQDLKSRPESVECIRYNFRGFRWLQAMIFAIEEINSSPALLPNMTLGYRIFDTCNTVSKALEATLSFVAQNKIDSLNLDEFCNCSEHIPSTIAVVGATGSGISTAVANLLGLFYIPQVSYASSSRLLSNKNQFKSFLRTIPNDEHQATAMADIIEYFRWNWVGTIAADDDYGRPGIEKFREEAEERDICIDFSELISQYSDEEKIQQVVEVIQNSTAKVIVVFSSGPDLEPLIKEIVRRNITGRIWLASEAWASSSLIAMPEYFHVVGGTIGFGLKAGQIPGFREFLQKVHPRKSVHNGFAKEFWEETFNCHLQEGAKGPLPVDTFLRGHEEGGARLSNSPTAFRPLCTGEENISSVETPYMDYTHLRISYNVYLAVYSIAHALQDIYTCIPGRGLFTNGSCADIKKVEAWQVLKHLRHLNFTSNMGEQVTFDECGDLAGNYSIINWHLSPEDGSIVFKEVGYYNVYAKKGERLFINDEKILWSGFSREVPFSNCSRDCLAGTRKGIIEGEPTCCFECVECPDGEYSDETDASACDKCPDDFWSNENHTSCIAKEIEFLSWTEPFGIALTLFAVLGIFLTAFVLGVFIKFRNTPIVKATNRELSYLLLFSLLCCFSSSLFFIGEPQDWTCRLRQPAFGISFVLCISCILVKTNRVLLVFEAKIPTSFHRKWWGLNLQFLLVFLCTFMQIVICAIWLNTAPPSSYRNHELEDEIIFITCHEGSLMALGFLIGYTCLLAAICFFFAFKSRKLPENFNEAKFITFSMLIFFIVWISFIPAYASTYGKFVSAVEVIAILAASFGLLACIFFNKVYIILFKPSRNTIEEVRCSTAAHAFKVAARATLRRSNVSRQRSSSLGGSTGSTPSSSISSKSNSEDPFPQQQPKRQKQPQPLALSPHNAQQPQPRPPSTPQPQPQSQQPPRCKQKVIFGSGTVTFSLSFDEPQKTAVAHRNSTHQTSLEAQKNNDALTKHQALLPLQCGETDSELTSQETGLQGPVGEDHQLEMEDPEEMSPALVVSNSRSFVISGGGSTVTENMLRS
Assay type: cell-based, bovine
assay-context: […]
Recorded measurements of EC50, one per entry
Give just the number in µM; leave the unit off.

These recorded examples may help you get a feel for the data.
C1CNCCNCCNCCNCCNCCN1 [hexacyclen, 1,4,7,10,13,16-hexaaza-cyclooctadecane] | 20
[H]/N=C(/N)N[C@H]1[C@H](O)[C@@H](O)[C@H](O[C@@H]2O[C@@H](C)[C@](O)(C=O)[C@H]2O[C@@H]2O[C@@H](CO)[C@H](O)[C@@H](O)[C@@H]2NC)[C@@H](N/C(N)=N\[H])[C@@H]1O [streptomycin] | 600

Okay, now this compound:
Which EC50 value is on record for NC[C@H]1O[C@H](O[C@H]2[C@H](O)[C@@H](O[C@H]3O[C@H](CO)[C@@H](O)[C@H](N)[C@H]3O)[C@H](N)C[C@@H]2N)[C@H](N)[C@@H](O)[C@@H]1O [bekanamycin] ?
200

---

tested-system: parathyroid cell Ca^2+ receptor (Homo sapiens)
Construct: Dissociated parathyroid cells were prepared from a parathyroid adenoma obtained by surgery from a patient with primary hyperparathyroidism; endogenous in cells
Sequence (P41180 20-1078): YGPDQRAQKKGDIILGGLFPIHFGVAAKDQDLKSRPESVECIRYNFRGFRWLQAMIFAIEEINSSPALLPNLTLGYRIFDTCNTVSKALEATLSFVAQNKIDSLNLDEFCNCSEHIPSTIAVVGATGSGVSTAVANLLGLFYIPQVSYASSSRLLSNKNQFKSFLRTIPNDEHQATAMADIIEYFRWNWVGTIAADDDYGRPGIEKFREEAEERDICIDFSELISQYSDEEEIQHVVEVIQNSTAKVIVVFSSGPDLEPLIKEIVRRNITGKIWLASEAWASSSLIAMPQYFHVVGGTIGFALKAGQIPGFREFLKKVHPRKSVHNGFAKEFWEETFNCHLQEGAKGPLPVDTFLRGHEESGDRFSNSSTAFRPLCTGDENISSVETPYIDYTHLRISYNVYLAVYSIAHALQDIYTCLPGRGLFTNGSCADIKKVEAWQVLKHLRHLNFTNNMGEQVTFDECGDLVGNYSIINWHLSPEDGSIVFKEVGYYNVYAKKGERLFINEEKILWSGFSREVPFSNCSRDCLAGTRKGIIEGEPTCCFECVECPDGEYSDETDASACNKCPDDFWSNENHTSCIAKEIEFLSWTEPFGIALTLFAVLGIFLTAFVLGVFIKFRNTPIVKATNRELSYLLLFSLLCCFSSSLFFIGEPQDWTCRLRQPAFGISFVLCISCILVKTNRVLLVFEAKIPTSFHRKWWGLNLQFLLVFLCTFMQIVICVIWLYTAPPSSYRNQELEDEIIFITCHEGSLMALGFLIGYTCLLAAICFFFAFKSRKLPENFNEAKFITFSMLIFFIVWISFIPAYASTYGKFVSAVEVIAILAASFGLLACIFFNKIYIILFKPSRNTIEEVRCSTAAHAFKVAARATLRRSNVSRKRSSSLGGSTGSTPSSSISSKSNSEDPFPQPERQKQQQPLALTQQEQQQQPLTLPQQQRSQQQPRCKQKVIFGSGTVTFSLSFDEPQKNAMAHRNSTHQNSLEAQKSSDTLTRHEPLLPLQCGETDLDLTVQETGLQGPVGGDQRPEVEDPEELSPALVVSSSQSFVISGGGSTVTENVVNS
protocol-notes: [Ca2+]i (fura-2) in human parathyroid cells
assay-context: human parathyroid cells (adenoma)
quantity-name: pEC50
// returns pEC50 (minus log10 of molar concentration), number only

Returns the measured pEC50 for the input compound. Input: COc1cccc([C@@H](C)NCCCc2ccccc2Cl)c1 [NPS R-568]
5.52
